assay: melting temperature; fluorescence melt of hairpins on a sequencing array, two-state fit, raised by 9.35 °C to match UV melts; conditions: sodium 0.088 M
Assign 1 (yes) whenever Tm does not fall below 60 °C; assign 0 (no) whenever it does.

Ask: Exam item: decide whether the reported Tm for GTGCTGAAAAGCAC (((((....))))) is at least 60 °C.
Reply: 1 (yes)

Ask: Exam item: decide whether the reported Tm for GATCGTTACAACGATC ((((((....)))))) is at least 60 °C.
Reply: 0 (no)

Ask: Exam item: decide whether the reported Tm for GGAGTAACGAAAGTTTCC (((..(((....)))))) is at least 60 °C.
Reply: 0 (no)

Ask: Exam item: decide whether the reported Tm for CGTGTCGGAAACGATACG (((.(((....))).))) is at least 60 °C.
Reply: 0 (no)

Ask: Exam item: decide whether the reported Tm for GGCCCTGGAAACAAGGCC ((((.((....)).)))) is at least 60 °C.
Reply: 0 (no)

Ask: Exam item: decide whether the reported Tm for CGTCCCGGAAACGGACG (((.(((....)))))) is at least 60 °C.
Reply: 0 (no)

Ask: Exam item: decide whether the reported Tm for GGAGCCGAAAGGCGCTCC ((((((....)))..))) is at least 60 °C.
Reply: 0 (no)

Ask: Exam item: decide whether the reported Tm for GATCTGGCGACAGATC ((((((....)))))) is at least 60 °C.
Reply: 0 (no)

Ask: Exam item: decide whether the reported Tm for GCAGTGGAAACACTGC ((((((....)))))) is at least 60 °C.
Reply: 1 (yes)

Ask: Exam item: decide whether the reported Tm for GATCCGGGACGGATC ((((((...)))))) is at least 60 °C.
Reply: 1 (yes)

Ask: Exam item: decide whether the reported Tm for GACTACGAAAGTAGGTC ((((((....))).))) is at least 60 °C.
Reply: 0 (no)

----------
test: melting temperature; fluorescence melt of hairpins on a sequencing array, two-state fit, raised by 9.35 °C to match UV melts; settings: sodium 0.088 M
Please provide measured Tm for the entries that follow.
A number alone suffices; assume °C.

Ask: Query (sequence): GTGTACGAAAGTACTCAC ((((((....)))..))) ; field requested: Tm
Reply: 35.7

Ask: Query (sequence): GGTGTCGAAAGACCAACC ((((((....)))..))) ; field requested: Tm
Reply: 37.5

Ask: Query (sequence): GCTGCGCGAAAGCACTGC ((.(.((....)).).)) ; field requested: Tm
Reply: 53.3

Ask: Query (sequence): GACGGCGAAAGCCTGTC ((((((....))).))) ; field requested: Tm
Reply: 58.6

Ask: Query (sequence): GACTGGGGAAACCCAATC ((.((((....)))).)) ; field requested: Tm
Reply: 31.7

Ask: Query (sequence): GATCGAACATCGATC ((((((...)))))) ; field requested: Tm
Reply: 49

Ask: Query (sequence): AGAGAGAAATCTCT (((((....))))) ; field requested: Tm
Reply: 23.2

Ask: Query (sequence): GATCAGCGACTGATC ((((((...)))))) ; field requested: Tm
Reply: 46.8

Ask: Query (sequence): GCACACCGAAAGGTTGC (((.(((....)))))) ; field requested: Tm
Reply: 53.6

Ask: Query (sequence): GATCACGAACGTGATC ((((((....)))))) ; field requested: Tm
Reply: 67.3

Ask: Query (sequence): GGACTTGCGAAAGCATCC (((..(((....)))))) ; field requested: Tm
Reply: 26.3

Ask: Query (sequence): GTAACCCGAAAGGGATAC (((.(((....))).))) ; field requested: Tm
Reply: 48.6

Ask: Query (sequence): GCTCAGGAAACTGAGC ((((((....)))))) ; field requested: Tm
Reply: 64.7

Ask: Query (sequence): GCCTATACGAAAGTAGGC (((..(((....)))))) ; field requested: Tm
Reply: 48.3

Ask: Query (sequence): GGAATCGAAAGATTCTCC ((((((....)))..))) ; field requested: Tm
Reply: 44.4

Ask: Query (sequence): GAGGAGGGAAACCTCTTC ((.((((....)))).)) ; field requested: Tm
Reply: 47.8

Ask: Query (sequence): GATCTGATACCAGATC ((((((....)))))) ; field requested: Tm
Reply: 47.1

Ask: Query (sequence): GGAGTCTCGAAAGAGTCC (((..(((....)))))) ; field requested: Tm
Reply: 41.7

Ask: Query (sequence): GGAGAGACGAAAGTCTCC (((..(((....)))))) ; field requested: Tm
Reply: 44

Ask: Query (sequence): GAGCGCGGAAACGCACCC (.(.(((....))).).) ; field requested: Tm
Reply: 31.7

Ask: Query (sequence): GCCGCCGAAAGGCTGGGC ((((((....)))..))) ; field requested: Tm
Reply: 64.8

Ask: Query (sequence): GAGGACGAAAGTCTTCTC ((((((....)))..))) ; field requested: Tm
Reply: 48

Ask: Query (sequence): GATCGTTCTGACGATC ((((((....)))))) ; field requested: Tm
Reply: 55.5

Ask: Query (sequence): GATCGAAGTGTCGATC ((((((....)))))) ; field requested: Tm
Reply: 51.2

Ask: Query (sequence): GGGCTCGAAAGAGCGCCC ((((((....)))..))) ; field requested: Tm
Reply: 56.6

Ask: Query (sequence): GAAAAAACGAAAGTTTTC (((..(((....)))))) ; field requested: Tm
Reply: 30.9

Ask: Query (sequence): GATCCGTACACGGATC ((((((....)))))) ; field requested: Tm
Reply: 61.2

Ask: Query (sequence): GAGGAAGCGAAAGCTCTC (((..(((....)))))) ; field requested: Tm
Reply: 35.4

Ask: Query (sequence): GCAAGACCGAAAGGTTGC (((..(((....)))))) ; field requested: Tm
Reply: 48.2

Ask: Query (sequence): GCCGACGAAAGTCCGGGC ((((((....)))..))) ; field requested: Tm
Reply: 53

Ask: Query (sequence): GAATAAGGAAACTTGTTC (((.(((....))).))) ; field requested: Tm
Reply: 29.6

Ask: Query (sequence): GCTCGAACGAAAGTTAGC (((..(((....)))))) ; field requested: Tm
Reply: 31.5

Ask: Query (sequence): GTCCGCGAAAGCGATGAC ((((((....)))..))) ; field requested: Tm
Reply: 38.3

Ask: Query (sequence): GGATTAACGAAAGTTTCC (((..(((....)))))) ; field requested: Tm
Reply: 28.2

Ask: Query (sequence): GACATTGCGAAAGCAGTC (((..(((....)))))) ; field requested: Tm
Reply: 32.4

Ask: Query (sequence): GGCAACGAAAGTTAGGCC ((((((....)))..))) ; field requested: Tm
Reply: 46.2

Ask: Query (sequence): GCAGTGGGAAACTACTGC (((((.(....).))))) ; field requested: Tm
Reply: 54.2

Ask: Query (sequence): GATCGCCGAAAGGCATC (((.(((....)))))) ; field requested: Tm
Reply: 37.6

Ask: Query (sequence): GGTGGCGAAAGCCTAACC ((((((....)))..))) ; field requested: Tm
Reply: 43.7

Ask: Query (sequence): GCGTAGGGAAACCTGTGC ((..(((....)))..)) ; field requested: Tm
Reply: 37.4

Ask: Query (sequence): GGTGTACGAAAGTAACC (((.(((....)))))) ; field requested: Tm
Reply: 47.8

Ask: Query (sequence): GTCTACGAAAGTAAAGAC ((((((....)))..))) ; field requested: Tm
Reply: 37.3

Ask: Query (sequence): GCGTCTACACGC ((((....)))) ; field requested: Tm
Reply: 51.4

Ask: Query (sequence): GATTGGGGAAACCCGATC (((.(((....))).))) ; field requested: Tm
Reply: 48.8

Ask: Query (sequence): GGAGTCGAAAGACCCTCC ((((((....)))..))) ; field requested: Tm
Reply: 48

Ask: Query (sequence): GATCCGAGCCCGGATC ((((((....)))))) ; field requested: Tm
Reply: 55.3

Ask: Query (sequence): GTAGTCCCGAAAGGGTAC (((..(((....)))))) ; field requested: Tm
Reply: 31.5

Ask: Query (sequence): GCAAACGAAAGTTACTGC ((((((....)))..))) ; field requested: Tm
Reply: 27.3

Ask: Query (sequence): GAAGCCCGAAAGGGGTTC (((.(((....))).))) ; field requested: Tm
Reply: 67.7

Ask: Query (sequence): CGAAACGGAAACGTCTCG (((.(((....))).))) ; field requested: Tm
Reply: 39
